# System: RPMI-8226 leukemia
# Protocol Details: NCI tumour cell line growth inhibition, 48 h

Compound: C=C(C)[C@@H]1CC[C@]2(C(N)=O)CC[C@]3(C)[C@H](CC[C@@H]4[C@@]5(C)CC[C@H](O)C(C)(C)[C@@H]5CC[C@]43C)[C@@H]12
Target System: RPMI-8226 leukemia
TGI: 24.9 µM

Compound: CSc1nc(NC2OCC(OC(C)=O)C(OC(C)=O)C2OC(C)=O)c(N=C(C)C(C)=O)c(=O)n1C (configuration not stated)
Target System: RPMI-8226 leukemia
TGI: > 100 µM

Compound: N#CC1(C#N)NC(c2cccnc2)C(C#N)(C#N)NC1c1cccnc1 (configuration not stated)
Target System: RPMI-8226 leukemia
TGI: > 100 µM

Compound: O=C1OC2C(O)COC2(O)C1(O)C(C[N+](=O)[O-])c1ccc(Cl)cc1 (configuration not stated)
Target System: RPMI-8226 leukemia
TGI: 4.67 µM

Compound: O=C1Nc2cc(Cl)ccc2N=CC1NC(=O)C(c1ccccc1)c1ccccc1Cl (configuration not stated)
Target System: RPMI-8226 leukemia
TGI: > 100 µM

Compound: CN(C)c1ncnc2c1Cc1ccccc1C(=O)N2C
Target System: RPMI-8226 leukemia
TGI: > 100 µM

Compound: CC(C)N(C(=O)C1(C)CC1)C(C)C
Target System: RPMI-8226 leukemia
TGI: > 100 µM

Compound: COc1c(C)c2c(c3c1c(=O)c1ccccc1n3C)C=CC(C)(C)O2
Target System: RPMI-8226 leukemia
TGI: 76.8 µM

Compound: CN[C@@H](C)C(=O)N[C@H]1CN(C(=O)CC(C)C)CC[C@H]2CC[C@@H](C(=O)NC(c3ccccc3)c3ccccc3)N2C1=O
Target System: RPMI-8226 leukemia
TGI: > 100 µM

Compound: CCSC(SCC)c1cc2c(cc1Br)OCO2
Target System: RPMI-8226 leukemia
TGI: 60.3 µM

Compound: C=C[C@]1(O)CCC[C@]2(C)C(=O)CCC12C (some centres not stated)
Target System: RPMI-8226 leukemia
TGI: > 100 µM

Compound: COc1cc2c(c(OC)c1O)-c1ccc(OC)c(=O)cc1[C@@H](NC(=O)C(F)(F)F)CC2
Target System: RPMI-8226 leukemia
TGI: 0.0699 µM

Compound: Nc1nc(Cl)cc(NCCCNc2cc(Cl)nc(N)n2)n1
Target System: RPMI-8226 leukemia
TGI: > 100 µM

Compound: O=Nc1c(-c2c(O)[nH]c3ccccc23)[nH]c2ccccc12
Target System: RPMI-8226 leukemia
TGI: 9.95 µM

Compound: Sc1ccc2ccccc2c1CNCc1ccccc1
Target System: RPMI-8226 leukemia
TGI: 31.9 µM

Compound: CC(N)C(=O)OCN1C(=O)C2C3C=CC(C2C1=O)C1C2C(=O)N(COC(=O)C(C)N)C(=O)C2C31 (configuration not stated)
Target System: RPMI-8226 leukemia
TGI: 54.9 µM

Compound: c1ccc(CSC2(SCc3ccccc3)CCCC2)cc1
Target System: RPMI-8226 leukemia
TGI: > 10 µM

Compound: CCCCCN1CCN(c2ncccn2)CC1
Target System: RPMI-8226 leukemia
TGI: > 100 µM

Compound: O=C1CCCC2=C1CC1=C(CCCC1=O)N2c1ccccc1C(=O)O
Target System: RPMI-8226 leukemia
TGI: > 100 µM

Compound: O=C1c2sc(-c3ccc(F)cc3)cc2-n2cccc21
Target System: RPMI-8226 leukemia
TGI: > 100 µM

Compound: c1ccc(N=C(N2CCOCC2)N(CCN2CCOCC2)c2ccccc2)cc1
Target System: RPMI-8226 leukemia
TGI: > 100 µM

Compound: CCN(CC)C(=S)SNc1ccc(S(N)(=O)=O)cc1
Target System: RPMI-8226 leukemia
TGI: > 78.9 µM

----------
# Tested on: NCI-H23 lung
# Protocol Details: NCI tumour cell line growth inhibition, 48 h
Quick reference for TGI among some compounds

Compound: Fc1ccc(-c2nn3c(CNc4ccccc4)nnc3s2)cc1
Value Comparator: >
TGI / µM: 100
--
Compound: CCCCC(C(=O)N/N=C/c1ccc([N+](=O)[O-])o1)C(=O)N/N=C/c1ccc([N+](=O)[O-])o1
Value Comparator: =
TGI / µM: 4.65
--
Compound: CCCCCCCCCCCCNC(=O)[C@H]1CSC(c2cc3ccccc3s2)N1 (stereo not given in full)
Value Comparator: =
TGI / µM: 7.19
--
Compound: Cc1ccc2c(c1)C(C)Cc1c(ncnc1-n1cnc3cc(C)ccc31)N2C (stereo not given)
Value Comparator: =
TGI / µM: 21.5
--
Compound: Cc1ccccc1[P+](C)(c1ccccc1C)c1ccccc1C
Value Comparator: =
TGI / µM: 27.3

----------
# Tested on: IGROV1 ovarian
# Protocol Details: NCI tumour cell line growth inhibition, 48 h

Compound: O=C(NCCO)c1cc2c(cn1)[nH]c1ccccc12
TGI: > 100 µM
--
Compound: CNC1C(O)C(OC2C(N)CC(N)C(OC3OC(CN)=CCC3N)C2O)OCC1(C)O (stereo not drawn)
TGI: > 100 µM
--
Compound: O=C1OC(c2ccccc2)=N/C1=C\c1ccc2ccccc2c1
TGI: > 100 µM
--
Compound: Cn1cc(-c2csc(-c3cn(C)c4ccc(Br)cc34)n2)c2cnccc21
TGI: 3.28 µM
--
Compound: O=C1/C=C/[C@@H](O)[C@@H]2C[C@@H](O)C[C@H]2/C=C/CCC[C@H](CCc2ccc(C(F)(F)F)cc2)O1
TGI: 7.01 µM
--
Compound: COc1ccc2c(c1O)C(=O)C(CCC(=O)O)CC2 (stereo not drawn)
TGI: > 100 µM
--
Compound: CCCc1cc(=O)oc2c(C=O)c(O)cc(O)c12
TGI: > 100 µM
--
Compound: O=C(NO)c1ccc(OCc2cccc(Cl)c2)cc1
TGI: 23.3 µM
--
Compound: NC(=O)C1c2ccccc2C=Cc2ccccc21
TGI: > 100 µM
--
Compound: O=c1[nH]cc(/C=N\Nc2ccccc2)c(=O)[nH]1
TGI: > 100 µM
--
Compound: Cc1[nH]n(C2=NCCN2)c(=O)c1C
TGI: > 100 µM
--
Compound: Fc1ccc(-c2nn3c(CNc4ccccc4)nnc3s2)cc1
TGI: > 100 µM
--
Compound: CC1C(=NO)C(C)C(c2ccccc2)N(N=O)C1c1ccccc1 (stereo not drawn)
TGI: 52.9 µM
--
Compound: Cc1n[n+](CC(=O)c2ccccc2)c2sc(N)nn12
TGI: > 100 µM
--
Compound: COc1ccc(/C=N/N=C(\N)NO)c(Cl)c1O
TGI: > 100 µM
--
Compound: Nc1nc(Cl)cc(NCCCCCNc2cc(Cl)nc(N)n2)n1
TGI: > 100 µM
--
Compound: CC1=C(C(=O)Nc2ccccc2)C(c2ccc([N+](=O)[O-])cc2)C(C(=O)Nc2ccccc2)=C(C)N1
TGI: > 100 µM
--
Compound: O=C1Nc2cc(Cl)ccc2N=CC1NC(=O)C(c1ccccc1)c1ccccc1Cl (stereo not drawn)
TGI: > 100 µM
--
Compound: Cc1nc2ccccn2c1NC(=O)NNC(=S)Nc1ccc(Br)cc1
TGI: > 100 µM
--
Compound: Oc1cccc(-c2ccc3c4c2O[C@H]2c5[nH]c6ccccc6c5C[C@@]5(O)[C@@H](C3)N(CC3CC3)CC[C@]425)c1
TGI: 3.12 µM
--
Compound: CC1(C)C=Cc2c(cc3oc4ccc5c(c4c(=O)c3c2O)C=CC(C)(C)O5)O1
TGI: > 100 µM
--
Compound: CS/C(C#N)=C(\C#N)SC
TGI: 43.8 µM
--
Compound: CCCCOCn1c(=O)[nH]c(=O)c2ccccc21
TGI: > 100 µM

----------
# System: KM20L2 colon
# Protocol Details: NCI tumour cell line growth inhibition, 48 h

Compound: COc1cc(Br)c(CC2(C#N)c3ccccc3C3C(N2C(=O)c2ccccc2)C3(Cl)Cl)cc1OC (stereo not given)
TGI: > 65.5 µM
--
Compound: COc1cccc(NC(=O)C(C)(C)C)c1C=O
TGI: > 100 µM
--
Compound: O=c1cc(-c2ccccc2)oc2cc(OCC(O)COc3ccc4c(=O)cc(-c5ccccc5)oc4c3)ccc12
TGI: > 100 µM
--
Compound: C=CC(=O)N1C/C(=C\c2ccccc2)C(=O)/C(=C/c2ccccc2)C1
TGI: 3.1 µM
--
Compound: CC1CN(c2ccc(Cl)cc2)CC(C)(C)OC(=O)O1 (stereo not given)
TGI: > 100 µM

----------
# Tested on: MDA-MB-231 breast
# Protocol Details: NCI tumour cell line growth inhibition, 48 h; in the data active means GI50 below about 0.43 µM; inactive means the rest
Classes used: true (1) = active, false (0) = inactive

Compound: Cc1ncc(C(=O)Nc2ccc(CN3CCN(C)CC3)c(C(F)(F)F)c2)cc1C#Cc1cnc(N)c2cnccc12
Target System: MDA-MB-231 breast
Class: true (1)
//
Compound: N=C(N)/N=C(\N)c1c(-c2cc(O)ccc2O)nc2sccn12
Target System: MDA-MB-231 breast
Class: false (0)
//
Compound: Fc1ccc(-c2nn3c(CNc4ccccc4)nnc3s2)cc1
Target System: MDA-MB-231 breast
Class: false (0)
//
Compound: O=C(NCCc1ccccc1)C(c1ccccc1)(c1ccccc1)c1ccccc1
Target System: MDA-MB-231 breast
Class: false (0)
//
Compound: COC(=O)[C@@]1(Cc2ccccc2)[C@H]2c3cc(C(=O)N4CCCC4)n(Cc4ccc(OC)c(OC)c4)c3C[C@H]2CN1C(=O)c1ccccc1
Target System: MDA-MB-231 breast
Class: false (0)
//
Compound: CCN(CC)CC.CCOc1ccc(NC(=O)N=C=[N-])cc1.[CH-]1CCCCC1.[CH-]1CCCCC1.[CH-]1CCCCC1.[Cl-].[Sn+4]
Target System: MDA-MB-231 breast
Class: true (1)
//
Compound: COc1c2c3ccccc3nc-2n(C)c2ccccc12
Target System: MDA-MB-231 breast
Class: false (0)
//
Compound: CNC(=O)c1c(NC(=O)c2ccc(C(F)(F)F)cc2)sc2c1CCC(=O)C2
Target System: MDA-MB-231 breast
Class: false (0)
//
Compound: Cc1ccc2c(c1)C(C)Cc1c(ncnc1-n1cnc3cc(C)ccc31)N2C (centres undefined)
Target System: MDA-MB-231 breast
Class: true (1)
//
Compound: CN(C)CCCNC(=O)c1ccc2oc3cc4ccccc4c(=O)n3c2c1
Target System: MDA-MB-231 breast
Class: false (0)
//
Compound: Cn1cc(-c2csc(-c3cn(C)c4ccc(Br)cc34)n2)c2cnccc21
Target System: MDA-MB-231 breast
Class: false (0)
//
Compound: O=C(CSc1nc2ccccc2nc1-c1ccccc1)Nc1ccc(Cl)cc1
Target System: MDA-MB-231 breast
Class: false (0)
//
Compound: CCN(CC)CCCC(C)Nc1cc(-c2ccc(C(F)(F)F)cc2)c(C#N)c2nc3ccccc3n12 (centres undefined)
Target System: MDA-MB-231 breast
Class: false (0)
//
Compound: COc1cc(-c2nc(NC(C)=O)sc2-c2ccnc(NCCNS(=O)(=O)c3ccccc3)n2)ccc1Cl
Target System: MDA-MB-231 breast
Class: false (0)
//
Compound: O=C1/C=C/[C@@H](O)[C@@H]2C[C@@H](O)C[C@H]2/C=C/CCC[C@H](CCc2ccc(C(F)(F)F)cc2)O1
Target System: MDA-MB-231 breast
Class: true (1)
//
Compound: O=C(N/N=C/c1ccccc1O)C(O)(c1ccccc1)c1ccccc1
Target System: MDA-MB-231 breast
Class: false (0)
//
Compound: COc1ccc(CCN2CCCN3C2=Nc2ccccc2S3(=O)=O)cc1
Target System: MDA-MB-231 breast
Class: false (0)
//
Compound: Cc1nc2ccccn2c1NC(=O)NNC(=S)Nc1ccc(Br)cc1
Target System: MDA-MB-231 breast
Class: false (0)
//
Compound: NC(=O)C1c2ccccc2C=Cc2ccccc21
Target System: MDA-MB-231 breast
Class: false (0)
